# measurement.target: hAM1R (human, UniProt Q16602)
# test.summary: cell-based or functional assay
Bridge positions count the residues as written; N and C are the ends. Square brackets hold non-standard residues; d marks the D form. Ends that are not written are not given here. Hyp = O=C(O)[C@@H]1C[C@@H](O)CN1; Cit = NC(=O)NCCC[C@H](N)C(=O)O
Each entry below carries its recorded hAM1R EC50 (cAMP).
Hi! Could you send only the number? It should be in nM, unit omitted.

Below, each entry is followed by its recorded hAM1R EC50 (cAMP) result.
>  <binder>
GCRFGTCTVQ[Cit]LAHQIYQFTDKDKDNVAPRTNVSPNGY-NH2 (disulfide 2-7 (inferred); ends not checked) [SEQ ID NO: 271]

>  <result.number>
96.6

$$$$
>  <binder>
GCRFGTCTVQRLAHQIYQFTDKDKDNVAPRTNVSPQG[Hyp]-NH2 (disulfide 2-7 (inferred); ends not checked) [SEQ ID NO: 125]

>  <result.number>
2980

$$$$
>  <binder>
GCRTGTCTVQRLAHQIYQFTDKDKDNVAPRTNIGPQG[Hyp]-NH2 (disulfide 2-7 (inferred); ends not checked) [SEQ ID NO: 118]

>  <result.number>
2980

$$$$
>  <binder>
GCRFGTCTVQRLAHQIYQFTDKDKDNVAPRSKVSPQG[Hyp]-NH2 (disulfide 2-7 (inferred); ends not checked) [SEQ ID NO: 167]

>  <result.number>
2980

$$$$

// switching to the query binder
QUERY: Which hAM1R EC50 (cAMP) is listed for GCRFGTCTVQRLAHQIYQFTDKDKDNVAPRTNVGPNG[Hyp]-NH2 (disulfide 2-7 (inferred); ends not checked) [SEQ ID NO: 90] ?
RESULT: 58.5
